# experimental_target: T1, Anti-CD28 Fab (SEQ ID NOs: 696, 697)
# T1 construct: In the phage ELISA the Fab was biotinylated and captured on neutravidin coated plates
# T1 sequence (VH, as listed by the source, chain 1 of 2): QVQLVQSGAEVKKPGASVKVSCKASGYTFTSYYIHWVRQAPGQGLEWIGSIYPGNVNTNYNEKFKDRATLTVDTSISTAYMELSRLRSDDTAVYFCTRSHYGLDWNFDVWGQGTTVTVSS
# T1 sequence (VL, as listed by the source, chain 2 of 2): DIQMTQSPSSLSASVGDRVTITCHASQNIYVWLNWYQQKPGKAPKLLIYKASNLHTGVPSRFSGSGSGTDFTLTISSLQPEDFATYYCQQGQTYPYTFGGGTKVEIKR
# measurement_notes: phage binding ELISA on captured anti-CD28 Fab; wells pre-incubated with CD28 antigen as competitor
measure: Anti-CD28 Fab signal in the presence of CD28

binder | data_value
LCKPGVPYKWPTCL (Clonal phage of the Peptide-92 library, tested as crude supernatant; not shown: fused to the pIII filament of the bacteriophage) [Phage-1353] | 0.07
SCSAGAAYYWPWCL (Clonal phage of the Peptide-92 library, tested as crude supernatant; not shown: fused to the pIII filament of the bacteriophage) [Phage-1348] | 0.09
MCSAGAMYKWPLCL (Clonal phage of the Peptide-92 library, tested as crude supernatant; not shown: fused to the pIII filament of the bacteriophage) [Phage-1359] | 0.05
TCSAGATWAWPLCF (Clonal phage of the Peptide-92 library, tested as crude supernatant; not shown: fused to the pIII filament of the bacteriophage) [Phage-1349] | 0.09
